system: HOP-92 NSCLC; assay: NCI tumour cell line growth inhibition, 48 h
TGI reference
I only need the number, in µM, no unit after it.

Please review the following examples before continuing.
CC(Br)CN(CC(C)Br)c1ccc2c(c1)Cc1ccccc1-2 (centres undefined) : 20.9
O=C1C=CC(=O)c2c(O)c(N3CCN(c4ncccn4)CC3)c(Cl)c(O)c21 : 4.72

Fill in the recorded TGI for this compound, with HOP-92 NSCLC as test system: CCCCCCCCCCCCNC(=O)[C@H]1CSC(c2ccsc2)N1 (some centres undefined)
2.02

Fill in the recorded TGI for this compound, with HOP-92 NSCLC as test system: CC(C)NC(=O)OCc1c(COC(=O)NC(C)C)n(C)c2c1ccc1cc(Cl)c(Cl)cc12
24.3

====

TGI reference
tested on: SF-539 CNS; assay: NCI tumour cell line growth inhibition, 48 h
I only need the number, in µM, no unit after it.

Fill in the recorded TGI for this compound, with SF-539 CNS as test system: Brc1ccc2[nH]cc(-c3csc(-c4c[nH]c5ccc(Br)cc45)n3)c2c1
2.9

Fill in the recorded TGI for this compound, with SF-539 CNS as test system: O=C1C=CC(=O)c2c(O)c(N3CCN(c4ncccn4)CC3)c(Cl)c(O)c21
3.63

Fill in the recorded TGI for this compound, with SF-539 CNS as test system: O=C(/C(=N/Nc1cn[nH]c(=O)c1Cl)c1ccccc1)c1ccccc1
71.1

====

TGI reference
test system: SF-295 CNS; assay: NCI tumour cell line growth inhibition, 48 h

Cc1ccc2c(C(C[N+](=O)[O-])c3ccco3)c(-c3ccccc3)[nH]c2c1 (stereo not given) : > 100 µM

Value lookup for TGI; key = CC12CCC(=O)[C@@]1(C)CCCC2=O (stereo not given in full)
> 100 µM

Value lookup for TGI; key = CCCCCc1cc(CCCC)sc1-c1ccco1
> 100 µM

Value lookup for TGI; key = NCCn1c2c(c3ccccc3c1=O)C(=O)c1ccccc1-2
1.48 µM

Value lookup for TGI; key = C[C@@H](CCO)OC1OC(COC(=O)C(C)(C)C)C(OC(=O)C(C)(C)C)C(OC(=O)C(C)(C)C)C1OC(=O)C(C)(C)C (stereo not given in full)
76.7 µM

====

TGI reference
system: NCI-H522 lung; test: NCI tumour cell line growth inhibition, 48 h
I only need the number, in µM, no unit after it.

Please review the following examples before continuing.
CCOC(=O)C(=Cc1c(-c2ccccc2)[nH]c2ccccc12)C(=O)OCC : 11.8
CN1C=C(C(N)=O)C2CC(O)[C@@](NC(=O)CS(N)(=O)=O)(C(=O)O)C2C1 (some centres undefined) : 23.9
CC(=O)[O-].O=[N+]([O-])c1ccc([O-])c(C=NCCN=Cc2cc([N+](=O)[O-])ccc2[O-])c1.[Mn+3] : 93.3

The record that follows has no TGI shown yet.
Value lookup for TGI; key = Cc1nc2cc(Nc3nc(Nc4ccc(F)cc4)nc(-c4ccc(Cl)cc4)n3)ccc2n1Cc1ccccc1
68.2

====

system: T-47D breast; assay: NCI tumour cell line growth inhibition, 48 h
property: TGI (µM)
I only need the number, in µM, no unit after it.

COc1cccc(C2CC(=O)Nc3cc4c(cc32)CCC4)c1OC (centres undefined) : 52.3
CC(C)c1ccc2c(c1)c(SC(C)(C)C)c(CC(C)(C)C(=O)O)n2Cc1ccc(Cl)cc1 : 27.3
CCCCCCCCCCCCCCCCCCNC(=O)[C@H]1CSC(c2ccc(F)c(OC)c2)N1 (some centres undefined) : 1.46
O=C(Nc1cccc(Cl)c1)c1cc(Cl)ccc1O : 7.38

Value lookup for TGI; key = C=C1C(=O)C23CC1CCC2C12CO[C@@]3(O)[C@@H](O)C1C(C)(C)C=CC2=O (some centres undefined)
33.1

Value lookup for TGI; key = O=C(O[C@@H](/C=C/c1ccccc1)P1(=O)N(Cc2ccccc2)[C@@H]2CCCC[C@H]2N1Cc1ccccc1)c1ccccc1
3.41

Value lookup for TGI; key = CN1CCN(CCCOc2ccc3ncnc(Nc4ccc(Oc5cccc(F)c5)c(Cl)c4)c3c2)CC1
4.35

Value lookup for TGI; key = O=c1c2ccccc2c(=O)c2c1sc1c(=O)c3ccc(O)cc3c(=O)c12
6.3

Value lookup for TGI; key = Cc1ccc(NCCNCC(O)CO)c2c(=O)c3ccccc3sc12 (centres undefined)
4.08

====

system: NCI-H23 lung; experiment: NCI tumour cell line growth inhibition, 48 h
TGI reference

Please review the following examples before continuing.
O=C(O[C@@H](/C=C/c1ccccc1)P1(=O)N(Cc2ccccc2)[C@@H]2CCCC[C@H]2N1Cc1ccccc1)c1ccccc1 : 9.22 µM
CC1(C)Oc2ccccc2N2O[C@@H]3C(=O)N(c4ccccc4)C(=O)[C@@H]3C21c1ccccc1 (some centres undefined) : > 100 µM

Value lookup for TGI; key = CC(=O)[O-].O=[N+]([O-])c1ccc([O-])c(C=NCCN=Cc2cc([N+](=O)[O-])ccc2[O-])c1.[Mn+3]
> 100 µM

Value lookup for TGI; key = COc1cc(-c2nn3c(=O)n(-c4ccc(Cl)cc4)c(=O)nc3s2)cc(OC)c1OC
> 100 µM

====

system: SK-MEL-5 melanoma; assay: NCI tumour cell line growth inhibition, 48 h; in the data active = GI50 below about 0.43 µM; inactive = the rest
Response enum: 1.0 for active, 0.0 for inactive

Reference set, count: 3
Cc1ccc(S(=O)c2ccc([N+](=O)[O-])c3nonc23)cc1 (stereo not drawn) : 0.0
CCOC(=O)/N=c1\ssc(Cl)c1Cl : 0.0
CNc1ccc(N=Nc2cccc3ncccc23)cc1 : 0.0

Which outcome was assigned to O=c1c2ccccc2c(=O)c2c1sc1c(=O)c3ccc(O)cc3c(=O)c12 in this test?
1.0

Which outcome was assigned to O=C1C2=C(Nc3cc([N+](=O)[O-])ccc3N2)OC1c1ccc(C2OC3=C(Nc4ccc([N+](=O)[O-])cc4N3)C2=O)cc1 (stereo not drawn) in this test?
0.0

Which outcome was assigned to COc1ccc(-c2nn(-c3cccc(Cl)c3)cc2/C=C2\C(=N)N(c3ccccc3)N=C2N)cc1 in this test?
0.0

Which outcome was assigned to COc1cc2c(c(OC)c1OC)-c1ccc(SC)c(=O)cc1[C@@H](NC(=O)c1ccc(F)cc1)CC2 in this test?
1.0

Which outcome was assigned to Cc1cc(S(N)(=O)=O)c(S/C(=N\NS(=O)(=O)c2ccccc2)c2ccc(Cl)c(Cl)c2)cc1Cl in this test?
0.0

Which outcome was assigned to Cc1cc(C(=O)Nc2cc(Nc3ncccc3-c3ncnc4nc[nH]c34)ccc2F)cc(C(C)(C)C#N)c1 in this test?
0.0

Which outcome was assigned to CC(=O)Nc1ccc2c(c1)CN1C(=O)c3ccccc3C1=N2 in this test?
0.0

Which outcome was assigned to COc1ccc(-c2nn(-c3cccc(Cl)c3)cc2-c2cc(-c3cccs3)no2)cc1 in this test?
0.0

Which outcome was assigned to COc1ccc2nc3cc(Cl)ccc3c(Nc3ccc(O)c(CN4CCCC4)c3)c2c1 in this test?
0.0

Which outcome was assigned to CC(C)c1ccc2c(c1)c(SC(C)(C)C)c(CC(C)(C)C(=O)O)n2Cc1ccc(Cl)cc1 in this test?
0.0

====

TGI reference
system: HCT-116 colon; test: NCI tumour cell line growth inhibition, 48 h
I only need the number, in µM, no unit after it.

Please review the following examples before continuing.
CCCCCCCCCCCCCCCCCCNC(=O)[C@H]1CSC(c2ccc(F)c(OC)c2)N1 (some centres undefined) : 1.64
Cc1ccc(NCCNCC(O)CO)c2c(=O)c3ccccc3sc12 (centres undefined) : 2.3
CC(=O)OC1Oc2cc(C)c(C)cc2-c2oc(=O)c(-c3ccccc3)cc21 (centres undefined) : 46.9

The record that follows has no TGI shown yet.
Value lookup for TGI; key = Brc1ccc2[nH]cc(-c3csc(-c4c[nH]c5ccc(Br)cc45)n3)c2c1
3.26

====

tested on: MALME-3M melanoma; test: NCI tumour cell line growth inhibition, 48 h
TGI reference
I only need the number, in µM, no unit after it.

COc1ccc2[nH]c3c(C)c4cc[n+](COC(=O)c5ccccc5)cc4c(C)c3c2c1 : 7.06
Cc1ccc2nc(Nc3ccccc3C)c(Nc3ccccc3C)nc2c1 : 48.8
Cc1ccc(NCCNCC(O)CO)c2c(=O)c3ccccc3sc12 (stereo not given) : 2.76
COc1ccc2nc3cc(Cl)ccc3c(Nc3ccc(O)c(CN4CCCC4)c3)c2c1 : 4.29
COc1ccccc1-c1nccc(COc2ccccc2C[C@@H](Oc2ncnc3sc(-c4ccc(F)cc4)c(-c4ccc(OCCN5CCN(C)CC5)c(Cl)c4C)c23)C(=O)O)n1 : 3.37
NCCNc1nc2ccccc2c2c(=O)c3cc(F)cc(Cl)c3sc12 : 3.35
O=C(Nc1nc2ccc(F)cc2s1)c1cccnc1Nc1ccc(Cl)cc1Cl : 12.1
CC12O[Te]34OC1(C)C(C)(O3)C2(C)O4 : 32.7

Value lookup for TGI; key = CCc1ccc(OCc2ccccc2C(=O)Nc2ccc3nc(C)cc(N)c3c2)cc1
3.35

Value lookup for TGI; key = Brc1ccc2[nH]cc(-c3csc(-c4c[nH]c5ccc(Br)cc45)n3)c2c1
3.99

Value lookup for TGI; key = CC(C)c1ccc2c(c1)c(SC(C)(C)C)c(CC(C)(C)C(=O)O)n2Cc1ccc(Cl)cc1
34
